assaySystem: Fibroblast growth factor 2 (Homo sapiens) (UniProt P09038)
Sequence (P09038 whole entry, looked up): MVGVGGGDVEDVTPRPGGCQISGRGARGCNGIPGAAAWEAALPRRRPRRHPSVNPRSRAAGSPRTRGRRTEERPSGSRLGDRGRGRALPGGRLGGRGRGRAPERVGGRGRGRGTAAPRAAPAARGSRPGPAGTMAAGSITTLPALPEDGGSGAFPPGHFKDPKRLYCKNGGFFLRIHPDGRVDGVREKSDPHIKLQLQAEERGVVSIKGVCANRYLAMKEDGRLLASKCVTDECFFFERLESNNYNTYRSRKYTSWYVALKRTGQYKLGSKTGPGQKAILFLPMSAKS
assayMethodText: FGF2 binders on small-molecule microarrays, primary screen, biochemical, small-molecule microarray, 635/667 nm fluorescence (AID 1133)
testSettings: small-molecule microarray binding, FGF2, fluorescence 635/667; higher = more signal
In this section we review reported composite z-score values for a set of compounds.
Form field (numeric): enter value without unit.

compound: C=C[C@@H](COC(C)=O)N(Cc1ccccc1[N+](=O)[O-])S(=O)(=O)c1ccc(Br)cc1
composite z-score: 1.51
//
compound: CC(C)N1CC=CC23O[C@@H]4C=CCOC(=O)[C@@H]4[C@H]2C(=O)N(CCO)[C@@H]3C1=O (stereo not given in full)
composite z-score: -1.33
//
compound: C=CCC(OC(C)=O)[C@@H]1[C@@H](N(Cc2ccc(-c3ccccc3)cc2)C(=O)Cc2ccc(OC)cc2)c2cc(OCCCO)ccc2N1C(=O)c1ccc2ccccc2n1 (stereo not given in full)
composite z-score: 0.635
//
compound: CC(C)c1ccc(NN2C(C(O)c3ccc(N(C)C)cc3)C=CC3C(=O)N(c4ccccc4)C(=O)C32)cc1 (stereo not given)
composite z-score: -0.321
//
compound: COCCOC(=O)N1C(=O)[C@@]2(c3cc(C#CCC(C(=O)OC)C(=O)OC)ccc31)[C@H](C(=O)N1CCCCCCC1)[C@H]1C(=O)O[C@H](c3ccccc3)[C@H](c3ccccc3)N1[C@@H]2c1ccc(OCCO)cc1
composite z-score: 1.62

Exercise: Give Fibroblast growth factor 2 (Homo sapiens) (UniProt P09038) composite z-score for the following compound: "CCCCCCc1nc(CCCc2cc3c(c(CCCCCC)n2)[Si](C(C)C)(C(C)C)OC3)cc2c1[Si](C(C)C)(C(C)C)OC2"
Solution: -0.13

# credit: PubChem BioAssay
